System Tested: T1, human IL-23R on Kit-225 cells (human, UniProt Q5VWK5 24-629)
T1 sequence: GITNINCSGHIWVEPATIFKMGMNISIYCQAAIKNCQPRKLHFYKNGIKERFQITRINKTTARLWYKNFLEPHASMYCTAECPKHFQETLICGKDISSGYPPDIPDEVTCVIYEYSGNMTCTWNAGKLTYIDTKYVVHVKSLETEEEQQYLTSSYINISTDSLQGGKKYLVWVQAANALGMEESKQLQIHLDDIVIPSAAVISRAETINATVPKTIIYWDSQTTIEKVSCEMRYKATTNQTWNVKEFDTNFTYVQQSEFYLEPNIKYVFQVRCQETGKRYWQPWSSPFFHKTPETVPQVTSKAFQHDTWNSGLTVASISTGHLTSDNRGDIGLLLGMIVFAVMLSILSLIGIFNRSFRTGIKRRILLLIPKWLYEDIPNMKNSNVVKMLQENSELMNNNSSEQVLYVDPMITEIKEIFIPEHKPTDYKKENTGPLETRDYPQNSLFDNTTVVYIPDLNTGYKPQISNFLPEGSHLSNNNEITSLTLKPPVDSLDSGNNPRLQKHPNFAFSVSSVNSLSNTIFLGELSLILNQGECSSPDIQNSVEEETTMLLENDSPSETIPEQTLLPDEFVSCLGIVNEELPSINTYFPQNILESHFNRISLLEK
Test Details: cell-based or functional assay
Measured Endpoint: Human IL-23-inducible Kit-225 cell proliferation inhibitory activity, IC50 (ng/mL)
Record the value in ng/mL, omitting the unit from your answer.

Some entries whose results are on file:
{"Binder": "fully human 25-3-3 (antibody, human IgG1, kappa, V domains shown, human Ig gamma1 / kappa) VH: QVQLQESGPGLVKPSQTLSLTCSVSGGSISSGDHYWTWIRQHPGKGLEWIGYIYSSGHTYYSPSLKSRVTISVDTSKNQFSLRLSSVTAADTAVYYCARVGDYEWFDTWGQGTLVTVSS VL: DIVMTQSPDSLAVSLGERATINCKSSQTILYPSNNMNYLGWYQQRAGQSPRLLIYWASTRESGVPDRFSGSGSGTDFTLTISSLQAEDVAVYYCQQYYSSLPTFGQGTKVEIKR", "Observed Measurement": 5.68}
{"Binder": "fully human 25-3 (antibody, human IgG1, kappa, V domains shown, Human Ig gamma1 / human kappa constant regions; expressed in CHO-K1SV cells; also called fully human antibody of 25-3) VH: QVQLQESGPGQVKPSQTLSLTCSVSGGSIDSGDHYWTWIRQHPGEVLEWIGYIYSSGHTYYSPSLKSRLTMSLDTSKNQFSLRLSSVTAADTAVYYCARVGDYEWFDTWGQGTLVTVSS VL: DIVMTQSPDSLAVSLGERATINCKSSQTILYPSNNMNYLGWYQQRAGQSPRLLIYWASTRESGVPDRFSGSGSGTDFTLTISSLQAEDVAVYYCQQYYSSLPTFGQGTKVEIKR", "Observed Measurement": 2.25}
{"Binder": "fully human 25-3-2 (antibody, human IgG1, kappa, V domains shown, human Ig gamma1 / kappa) VH: QVQLQESGPGLVKPSQTLSLTCSVSGGSIDSGDHYWTWIRQHPGKGLEWIGYIYSSGHTYYSPSLKSRVTISVDTSKNQFSLRLSSVTAADTAVYYCARVGDYEWFDTWGQGTLVTVSS VL: DIVMTQSPDSLAVSLGERATINCKSSQTILYPSNNMNYLGWYQQKPGQSPRLLIYWASTRESGVPDRFSGSGSGTDFTLTISSLQAEDVAVYYCQQYYSSLPTFGQGTKVEIKR", "Observed Measurement": 2.66}

So what's the measured Human IL-23-inducible Kit-225 cell proliferation inhibitory activity, IC50 for this one? fully human 25-3-1 (antibody, human IgG1, kappa, V domains shown, human Ig gamma1 / kappa) VH: QVQLQESGPGLVKPSQTLSLTCSVSGGSIDSGDHYWTWIRQHPGKGLEWIGYIYSSGHTYYSPSLKSRVTISVDTSKNQFSLRLSSVTAADTAVYYCARVGDYEWFDTWGQGTLVTVSS VL: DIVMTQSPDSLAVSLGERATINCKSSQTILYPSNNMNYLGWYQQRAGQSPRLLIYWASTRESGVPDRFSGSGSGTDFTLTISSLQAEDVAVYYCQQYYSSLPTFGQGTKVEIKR
3.09
